Reference for the values: PubChem BioAssay AID463195

experiment: wild-type TIM10 yeast growth inhibition – luminescence, uHTS, counter-screen for tim10-1 yeast inhibitor project, primary screen (AID 463195);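 note: wild-type TIM10 isogenic control strain grown at permissive 25 °C; 0% = DMSO yeast wells and 100% = minimal medium wells without yeast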; conditions: S. cerevisiae TIM10 strain growth, BacTiter-Glo luminescence, 24 h; at 10 µM; hits give high values
Out of some 330,000 compounds screened, about 4,600 (1.4%) were called active. This is one part of a sample in which actives are shown more often than they occur.

MOLECULE	inhibition [%]
COc1cc(/C=N/NC(=O)c2ccccc2)ccc1OS(=O)(=O)c1ccccc1	43.1
Cc1ccnc(SCC(=O)Nc2cccc(S(=O)(=O)N3CCOCC3)c2)n1	-2.35
COc1cc(/C=N/NC(=O)c2cccnc2)ccc1OC(=O)c1cccc(Br)c1	14.7
c1ccc(-c2nc(NCc3ccco3)c3ccccc3n2)cc1	49.9
CCC(C)N(C(=O)Cn1nc(C)c([N+](=O)[O-])c1C)C1CCS(=O)(=O)C1 (stereo not given)	2.63
CCN(CC(=O)NC(C)C)C(=O)c1cc(S(=O)(=O)N2CCCCC2)ccc1N1CCCCC1	-4.18
COc1ccc(C(=O)Nc2cc(C)c(NC(=O)c3ccccc3OC)cn2)cc1	14.6
N/C(=N\OC(=O)CCc1ccccc1)c1cccnc1	-2.8
COc1cc(C=NNC(=O)c2cccnc2)ccc1OC(=O)c1ccccc1F	7.06
N/C(=N\OC(=O)CCCC(=O)O)c1ncc(C(F)(F)F)cc1Cl	-12.6
CCc1cc(C(N)=O)c(NC(=O)c2ccc(OC)cc2)s1	48.7
COc1ccc(C(CNC(=O)COc2ccccc2OC)N2CCCCC2)cc1 (stereo not given)	0.651
COc1ccccc1/C=C/CN1CCC(CO)(Cc2ccccc2)CC1	-1.7
COc1ccc(C(=O)Nc2sc(C)c(C)c2CN2CCOCC2)cc1	29
CC1CCCN(CCOCCOc2ccccc2-c2ccccc2)C1 (stereo not given)	-0.424
COC(C[C@@H]1O[C@@H]1C(=O)[C@@H](C)OCc1ccccc1)OC	3.69
COc1ccc(N2CCN(C(=O)CCSCc3ccccc3F)CC2)cc1	27.5
COc1ccc(/C=N/Nc2ccccc2C(=O)O)cc1	13.9
COc1ccc(C(=O)Nc2ccccc2C(=O)N/N=C/c2ccccc2OC)cc1	64.2
CNS(=O)(=O)c1ccc(NC(=O)C2CC(=O)N(c3ccc(Cl)cc3)C2)cc1 (stereo not given)	-1.17
Cc1cc(C)c2nc(-c3cccnc3)cc(C(=O)Nc3ccc(S(=O)(=O)Nc4onc(C)c4C)cc3)c2c1	-10
COC(=O)c1ccc(C2C3=C(Nc4nnnn42)c2ccccc2OC3)cc1 (stereo not given)	27.5
NC(=S)Nc1c(Cl)cccc1Cl	-2.06
S=C(NCCCc1ccccc1)Nc1ccc(Br)cc1	43.1
CCOC(=O)CCCNC(=O)COC(=O)c1cc(Br)c(Br)s1	10.3
CC(C)(C)c1cc(C(=O)N/N=C/c2ccc([N+](=O)[O-])s2)n[nH]1	22
CC(Sc1nnc2c(n1)C1CCC2(C)C1(C)C)C(=O)Nc1ccccc1 (stereo not given)	14.6
CC1CCCN(c2ccc(C(=O)NCCc3ccccc3)cn2)C1 (stereo not given)	20.8
Cc1ccccc1NCC(=O)N/N=C\c1ccc([N+](=O)[O-])s1	56
N/C(=N\OC(=O)CC1CCCCC1)c1ccccc1	38
COc1ccc(CN2CCCC(C(=O)N3CCCCC3)C2)cc1 (stereo not given)	-13
COc1nc(Oc2ccc(=O)n(C)n2)nc(N(C)C)n1	-5.67
COc1cc(/C=N/NC(=O)CCc2n[nH]c(=O)[nH]c2=O)ccc1O	5.01
CCc1cc(C(=O)c2ccc(OC)cc2)c(NC(=O)CN2CCN(C)CC2)s1	14.6
O=S(=O)(NC(=S)Nc1ccccc1)c1ccc(F)cc1	-5.64
Cn1c(Nc2ccccc2)cc(=O)n(C)c1=O	0.045
O=C(CCNC(=O)c1ccc(Br)cc1)NCCCc1ccccc1	-4.58
S=C(Nc1ccc(Br)cc1)NC1CCN(Cc2ccccc2)CC1	-24.3
c1ccc2c(NCC3CCCO3)nc(-c3ccncc3)nc2c1 (stereo not given)	19.5
COc1ccc(/C(N)=N/OC(=O)CCCc2ccccc2)cc1	48.1
Cc1cc(-c2nnc(SCC(=O)Nc3ccc(S(N)(=O)=O)cc3)n2N)n[nH]1	-1.79
COc1ccc(C(CNC(=O)COc2ccc([N+](=O)[O-])cc2)N2CCCCC2)cc1 (stereo not given)	8.46
Cc1ccc(SCC(=O)NNC(=O)c2ccc(S(C)(=O)=O)cc2)cc1	2.08
N/C(=N\OC(=O)Nc1ccc(Cl)c(Cl)c1)c1ncc(C(F)(F)F)cc1Cl	71.5
O=C(Nc1cc(S(=O)(=O)Nc2ccc(Cl)cc2)ccc1O)c1ccc(F)cc1F	-2.9
